Test system: PC-3 prostate
Assay: NCI tumour cell line growth inhibition, 48 h
Result Type: TGI (µM)
Report as a plain number; the unit µM is understood.

CC[C@H]1C=CCC[C@@]2(C[C@@H]3CC[C@H]4[C@@H](C(=O)OCCCCCCCCCCCCCCCC(=O)N(CCCN)C[C@@H](O)CCN)[C@@]5(CCC[C@@H](C)O5)NC(=[N+]34)N2)O1 | 3.1
CC(=O)On1c(-c2ccccc2-c2nc3ccccc3n2OC(C)=O)nc2ccccc21 | 58.6
COc1cccc(C2c3cc4c(cc3OC(N3CCCC3)C2C)OCO4)c1O (stereo not given) | 73.5

Moving on to another molecule below.
Entry "C=C1C(=O)O[C@H]2[C@@H](O)[C@H](C)CCC[C@]3(C)O[C@H]3CC[C@@]3(C)O[C@@H]3C[C@@H]12" has what TGI?
14.5
